- assayExplanation: NCI Yeast Anticancer Drug Screen. Data for the sgs1 mgt1 strain (AID 161);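 also: 0% = growth of cultures given vehicle only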
- conditionParameters: S. cerevisiae sgs1 mgt1 strain, at 50.0 µM, stronger effect = higher value
This is part of a sample that, as a whole, favours compounds with a hit. Of some 79,000 tested, about 15% had one in any assay.

compound: CNC1=C(N2CC2)C(=O)C(NC)=C(N2CC2)C1=O
resultUnit: %
growth inhibition: 17.9
--
compound: C=CCOCC1CO1 (stereo not given)
resultUnit: %
growth inhibition: 11.1
--
compound: CCNc1ccc([N+](=O)[O-])cc1[N+](=O)[O-]
resultUnit: %
growth inhibition: 7.45
--
compound: N#CC(C#N)=Cc1ccc(C=C(C#N)C#N)cc1
resultUnit: %
growth inhibition: -15.9
--
compound: O=C(Cc1nc2ccccc2c(=O)n1-c1c(Cl)cccc1Cl)c1ccncc1
resultUnit: %
growth inhibition: 7.1
--
compound: c1ccc(CC2NC(Cc3ccccc3)N3C(Cc4ccccc4)N23)cc1 (stereo not given)
resultUnit: %
growth inhibition: 0.9
--
compound: C=CCNC(=S)/N=C/c1c(O)[nH]c(=O)[nH]c1=O
resultUnit: %
growth inhibition: -44.9
--
compound: CCCCCCCCSP(SCCCCCCCC)SCCCCCCCC
resultUnit: %
growth inhibition: -25.3
--
compound: CCCCC(C(=O)NN)P(=O)(OCC)OCC (stereo not given)
resultUnit: %
growth inhibition: 15.8
--
compound: C=C(Nc1nc2ccc(C)cc2s1)C(=O)C(CC)C(=O)C(CC)CC1C(=O)NC(=O)NC1=O (stereo not given)
resultUnit: %
growth inhibition: 4.35

---

- assayExplanation: NCI Yeast Anticancer Drug Screen. Data for the mlh1 rad18 strain (AID 175)
- conditionParameters: S. cerevisiae mlh1 rad18 strain growth inhibition; at 50.0 µM
The panel holds about 79,000 compounds, 15% with a hit somewhere; the sample as a whole holds those more often. Active and inactive are the calls of the source. Cut-off read from the data, not from the text of the source: active = growth inhibition above about 70%; inactive = the rest.
Classes used: active, inactive

compound: Cc1ccc(-n2c(=S)[nH]c3ccccc3c2=O)cc1F
classification: inactive

compound: CC1(C)N=C(N)N=C(N)N1c1ccc(CCc2ccc(S(=O)(=O)F)cc2Cl)c(Cl)c1
classification: active

compound: Cc1ccc2nc(CCl)[nH]c2c1
classification: inactive

compound: CCC(=O)C(CC(C)[N+](C)(C)C)(c1ccccc1)c1ccccc1 (stereo not drawn)
classification: inactive

compound: NC1CC(O)C(O)CC1c1ccc2c(c1)OCO2 (stereo not drawn)
classification: inactive

compound: c1ccc(N=PNc2ccccc2)cc1 (stereo not drawn)
classification: inactive

compound: CN(C)C1CCNCC1
classification: inactive

compound: CC(C)(C)OP(O)(=S)OC(C)(C)C
classification: inactive

---

- assayExplanation: NCI Yeast Anticancer Drug Screen. Data for the sgs1 mgt1 strain (AID 161);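 also: 0% = growth of cultures given vehicle only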
- conditionParameters: S. cerevisiae sgs1 mgt1 strain, at 50.0 µM, stronger effect = higher value
This is part of a sample that, as a whole, favours compounds with a hit. Of some 79,000 tested, about 15% had one in any assay.
Label satisfied when growth inhibition >= 20%; otherwise not satisfied.

compound: CCCCCCCCCCCCCCCCCC(=O)[O][Pb]([CH3])([CH3])[CH3]
classification: not satisfied

compound: CCCCP(CCCC)CCCC
classification: not satisfied

compound: CC(=O)Nc1cccc([As+](C)(C)C)c1
classification: not satisfied

compound: CC(N)Cc1c[nH]c2ccccc12 (stereo unspecified)
classification: not satisfied

compound: [CH3][Sb]([CH3])([CH3])([I])[I]
classification: not satisfied

compound: CC1=C(\C=C/C(C)=C/C=C/C(C)=C/C=C/C=C(C)\C=C\C=C(C)/C=C/C2=C(C)CCCC2(C)C)C(C)(C)CCC1
classification: satisfied

compound: C[C@]12CC[C@H](O)C=C1CC[C@@H]1[C@@H]2CC[C@]2(C)C(c3ccc(=O)oc3)CC[C@]12O (stereo partly specified)
classification: not satisfied

compound: CN1CCC(O)(c2ccccc2)C(C(O)c2ccccc2)C1 (stereo unspecified)
classification: not satisfied

compound: C/C=C1\C[C@@H]2C(OC)Nc3cc(O)c(OC)cc3C(=O)N2C1 (stereo partly specified)
classification: satisfied

compound: Fc1ccccc1N=C=S
classification: not satisfied

compound: c1ccc(C(c2ccccc2)C2CCNCC2)cc1
classification: not satisfied

compound: Cc1ccccc1C(=O)[O][Pb]([CH3])([CH3])[CH3]
classification: not satisfied

compound: COc1ccc(C(OCC2OC(n3ccc(Oc4c(F)c(F)c(F)c(F)c4F)nc3=O)CC2OP(OCCC#N)N(C(C)C)C(C)C)(c2ccccc2)c2ccc(OC)cc2)cc1 (stereo unspecified)
classification: not satisfied

compound: CN1C(=O)C(=CN(C)c2ccccc2)C(=O)N(C)C1=O
classification: satisfied

compound: CN(C)/N=C(\N)c1nnn(C)n1
classification: not satisfied

compound: c1ccc2c(C3N4CCCN3CC4)c[nH]c2c1 (stereo unspecified)
classification: not satisfied

compound: COc1ccc(/C=C/C=C2C(=O)NC(=S)NC2=O)cc1
classification: satisfied

compound: CC(=O)O[C@H]1CC[C@]2(C)C3=C([C@@H](OO)C[C@H]2C1(C)C)[C@]1(C)CC[C@H]([C@H](C)CCCC(C)C)[C@@]1(C)CC3
classification: not satisfied

compound: CCCCCCNC1C=CCC1 (stereo unspecified)
classification: not satisfied

compound: C=C(C)c1ccccc1 (tested in a mixture with another compound)
classification: not satisfied

compound: NNc1ccc([N+](=O)[O-])cc1
classification: satisfied

compound: O=C(CI)NCCNC(=O)CI
classification: satisfied

compound: CC(=O)[CH-]C(C)=O.CC(=O)[CH-]C(C)=O.CC(=O)[CH-]C(C)=O.[Cl-].[Hf+4]
classification: not satisfied

compound: CCC[As](=O)(O)CC[As](=O)(O)CCC
classification: satisfied

compound: C[n+]1ccc2ccccc2c1-c1c2ccccc2cc[n+]1C
classification: not satisfied

compound: Cc1c([As](=O)(O)O)ccc2nc3c(C)c([As](=O)(O)O)ccc3nc12
classification: not satisfied

compound: C(=C\c1cccs1)/CN1CCC2CCC(C2)C1 (stereo unspecified)
classification: not satisfied

compound: CCN1CCC2OCOC2C1 (stereo unspecified)
classification: not satisfied

compound: CCOC(OCC)c1ccc(C(F)(F)F)cc1.[C-]#[O+].[C-]#[O+].[C-]#[O+].[Cr]
classification: satisfied

compound: NCCc1ccccc1
classification: not satisfied

compound: [C-]#[O+].[C-]#[O+].[Ir].[O-]c1cccc2cccnc12
classification: not satisfied
